- Study Target: mutant CFTR (Homo sapiens, UniProt P13569, DEL508-508)
- Construct: expressed in transfected cells
- Sequence (P13569 with tags, fused parts or gaps DEL508-508): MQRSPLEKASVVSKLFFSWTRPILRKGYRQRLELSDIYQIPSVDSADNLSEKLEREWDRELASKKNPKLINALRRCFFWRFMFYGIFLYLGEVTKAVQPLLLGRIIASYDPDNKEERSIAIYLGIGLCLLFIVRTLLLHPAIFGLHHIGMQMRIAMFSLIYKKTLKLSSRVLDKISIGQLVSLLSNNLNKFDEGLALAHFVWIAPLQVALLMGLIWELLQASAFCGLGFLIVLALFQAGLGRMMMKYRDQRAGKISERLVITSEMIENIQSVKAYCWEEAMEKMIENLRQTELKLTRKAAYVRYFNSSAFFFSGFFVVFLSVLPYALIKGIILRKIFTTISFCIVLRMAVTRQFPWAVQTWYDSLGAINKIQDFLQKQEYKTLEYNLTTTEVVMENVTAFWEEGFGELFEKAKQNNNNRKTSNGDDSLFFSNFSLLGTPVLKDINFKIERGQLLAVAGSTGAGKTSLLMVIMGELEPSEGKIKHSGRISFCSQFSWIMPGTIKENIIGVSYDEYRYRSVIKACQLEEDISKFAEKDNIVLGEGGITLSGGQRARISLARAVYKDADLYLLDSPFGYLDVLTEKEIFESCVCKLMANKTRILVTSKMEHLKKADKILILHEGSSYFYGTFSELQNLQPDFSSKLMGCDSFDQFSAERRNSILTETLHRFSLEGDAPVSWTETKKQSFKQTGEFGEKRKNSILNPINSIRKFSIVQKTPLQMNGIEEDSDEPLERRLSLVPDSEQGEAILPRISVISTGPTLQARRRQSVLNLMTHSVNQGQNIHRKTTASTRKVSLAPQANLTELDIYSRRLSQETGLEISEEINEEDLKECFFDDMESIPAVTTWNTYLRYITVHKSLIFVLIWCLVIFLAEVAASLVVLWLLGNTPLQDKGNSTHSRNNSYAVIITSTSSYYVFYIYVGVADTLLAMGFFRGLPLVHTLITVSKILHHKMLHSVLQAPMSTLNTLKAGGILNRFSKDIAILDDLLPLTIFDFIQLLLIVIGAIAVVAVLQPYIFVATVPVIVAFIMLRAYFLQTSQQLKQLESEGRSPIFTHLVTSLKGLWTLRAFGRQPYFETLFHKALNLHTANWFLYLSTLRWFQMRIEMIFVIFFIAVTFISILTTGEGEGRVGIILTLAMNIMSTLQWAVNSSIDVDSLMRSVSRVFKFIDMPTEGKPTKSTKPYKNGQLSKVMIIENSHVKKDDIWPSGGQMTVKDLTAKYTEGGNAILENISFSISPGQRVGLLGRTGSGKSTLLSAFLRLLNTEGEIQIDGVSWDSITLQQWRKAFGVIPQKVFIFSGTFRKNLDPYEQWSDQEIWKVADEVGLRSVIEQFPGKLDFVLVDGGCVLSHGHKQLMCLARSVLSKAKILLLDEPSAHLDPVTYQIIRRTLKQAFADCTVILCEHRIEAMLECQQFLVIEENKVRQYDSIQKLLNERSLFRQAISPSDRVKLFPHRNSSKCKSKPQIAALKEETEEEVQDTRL
- Method Summary: Fluorescence (HS-YFP) assay for CFTR activity, corrector assay
- Format: cell-based
- Run Conditions: CFBE41o- and FRT cells with stable expression of mutant CFTR, read-out: activity (EC50)
Readout Kind: EC50

Task: Quick one: give measured EC50 for CN1Cc2c(C(F)(F)F)nn(-c3cccc(C(=O)N(C)c4ccc5c(c4)OC(F)(F)O5)c3)c2C(Oc2ccc(C(=O)O)cc2)C1 (stereo not drawn)
Output: < 1000 nM

Task: Quick one: give measured EC50 for `Cc1nc2ccc(N(C)C(=O)c3cccc(-n4nc(C(F)(F)F)c5c4CCN(C)C5)c3)cc2o1`
Output: < 1000 nM

Task: Quick one: give measured EC50 for CN(C(=O)c1cccc(-n2nc(C(F)(F)F)c3c2C(Oc2ccc(C(=O)O)cc2)CCC3)c1)c1ccc(OC(F)F)nc1 (racemic)
Output: < 1000 nM

Task: Quick one: give measured EC50 for `CC(C)c1nn(-c2cccc(C(=O)N(C)c3ccc4c(c3)OC(F)(F)O4)c2)c2c1CCCC2`
Output: 1000 to 2000 nM

Task: Quick one: give measured EC50 for Cc1cc2ncc(N(C)C(=O)c3cccc(-n4nc(C(F)(F)F)c5c4C(Oc4ccc(C(=O)O)cc4)COC5)c3)cn2n1 (racemic)
Output: < 1000 nM

Task: Quick one: give measured EC50 for CN(C(=O)c1cccc(-n2nc(C(F)(F)F)c3c2C(Oc2ccc(C(=O)O)cc2)CCC3)c1)c1ccc2c(c1)OCC2 (racemic) [Compound 261]
Output: < 1000 nM

====

- Study Target: F508del-CFTR (Homo sapiens, UniProt P13569, DEL508-508)
- Method Summary: Transepithelial electrical conductance (TEEC) in FRT cells
- Assay type: cell-based
- Set-up: expressed in transfected cells; host or cells: FRT cells
- Run Conditions: compounds tested at 5.0 µM; FRT cells expressing F508del-CFTR; 24 hrs incubation; forskolin and genistein stimulation minus PPQ-102 block
Readout Kind: Corrector activity (expressed as ΔTEEC values)

CN(C(=O)c1cccc(-n2nc(C(F)(F)F)c3c2CC2CCC3N2C(=O)OC(C)(C)C)c1)c1ccc2c(c1)OCO2 (racemic) [Compound 018]	+++ (ΔTEEC>3000 µS)
COC(=O)c1cccc(CN2CCc3c(c(C(F)(F)F)nn3-c3cccc(C(=O)N(C)c4ccc5c(c4)OCO5)c3)C2)c1 [Compound 020]	+++ (ΔTEEC>3000 µS)

====

- Study Target: mutant CFTR (Homo sapiens, UniProt P13569, DEL508-508)
- Construct: expressed in transfected cells
- Method Summary: Fluorescence (HS-YFP) assay for CFTR activity, corrector assay
- Format: cell-based
- Run Conditions: CFBE41o- and FRT cells with stable expression of mutant CFTR, read-out: activity (EC50)
pEC50: −log10 of the molar value. Counter-ions that a name gives are not always drawn.
Readout Kind: pEC50

Task: Quick one: give measured pEC50 for CN1CCOc2c(c(C(F)(F)F)nn2-c2cccc(C(=O)N(C)c3ccc4c(c3)OCO4)c2)C1 [Compound 017]
Output: > 6.00

Task: Quick one: give measured pEC50 for Cc1nc2ccc(N(C)C(=O)c3cccc(-n4nc(C(F)(F)F)c5c4C(Oc4ncc(C(=O)O)cn4)COC5)c3)cc2o1 (racemic) [Compound 297]
Output: > 6.00

Task: Quick one: give measured pEC50 for COc1cc(NC(=O)c2cccc(-n3nc(C(F)(F)F)c4c3CCN(C(=O)C(C)(C)C)C4)c2)ccn1 [Compound 083]
Output: < 5.70

Task: Quick one: give measured pEC50 for CN(C(=O)c1cccc(-n2nc(C(F)(F)F)c3c2CCN(C(=O)c2ccc(C(=O)O)cc2)C3)c1)c1ccc2c(c1)OCO2 [Compound 044]
Output: < 5.70

Task: Quick one: give measured pEC50 for COC(=O)c1ccccc1S(=O)(=O)N1CCc2c(c(C(F)(F)F)nn2-c2cccc(C(=O)N(C)c3ccc4c(c3)OCO4)c2)C1 [Compound 060]
Output: > 6.00

Task: Quick one: give measured pEC50 for Cc1nc2cc(F)c(N(C)C(=O)c3cccc(-n4nc(C(F)(F)F)c5c4C(Oc4ccc(C(=O)O)cc4)CCC5)c3)cc2o1 (stereo not drawn) [Compound 153]
Output: > 6.00

Task: Quick one: give measured pEC50 for CN(C(=O)c1cccc(-n2nc(C(F)(F)F)c3c2C(Oc2ccc(C(=O)O)cc2)CCC3)c1)c1ccc2c(c1)OC(F)(F)O2 (single isomer, unassigned) [Compound 151]
Output: > 6.00

Task: Quick one: give measured pEC50 for CN(C(=O)c1cccc(-n2nc(C(F)(F)F)c3c2C(Oc2ncc(C(=O)O)cn2)COC3)c1)c1ccc2c(c1)OCC2 (single isomer, unassigned) [Compound 298]
Output: > 6.00

Task: Quick one: give measured pEC50 for COc1ncc(N(C)C(=O)c2cccc(-n3nc(C(F)(F)F)c4c3C(Oc3ccc(C(=O)O)cc3)COC4)c2)cn1 (racemic) [Compound 306]
Output: 5.70 to 6.00

Task: Quick one: give measured pEC50 for CN(C(=O)c1cccc(-n2nc(C(F)(F)F)c3c2C(Oc2ccc(C(=O)O)cn2)COC3)c1)c1ccc2c(c1)OC(F)(F)O2 (single isomer, unassigned) [Compound 278]
Output: > 6.00

Task: Quick one: give measured pEC50 for CN(C(=O)c1cccc(-n2nc(C(F)(F)F)c3c2C(Oc2ccc(C(=O)O)cc2)COC3)c1)c1ccc2c(c1)OC(F)(F)O2 (single isomer, unassigned) [Compound 205]
Output: > 6.00

Task: Quick one: give measured pEC50 for CN(C(=O)c1cccc(-n2nc(C(F)(F)F)c3c2C(Oc2ccc(C(=O)O)cc2)CCC3)c1)c1cncc(C#N)c1 (racemic) [Compound 310]
Output: 5.70 to 6.00

Task: Quick one: give measured pEC50 for Cc1noc(C)c1S(=O)(=O)N1[C@@H]2CC[C@H]1c1c(C(F)(F)F)nn(-c3cccc(C(=O)N(C)c4ccc5c(c4)OCO5)c3)c1C2 (single isomer, unassigned) [Compound 128]
Output: > 6.00

Task: Quick one: give measured pEC50 for CN(C(=O)c1cccc(-n2nc(C(F)(F)F)c3c2C(Oc2cc(C(=O)O)ccn2)CCC3)c1)c1ccc2c(c1)OC(F)(F)O2 (single isomer, unassigned) [Compound 198]
Output: > 6.00

Task: Quick one: give measured pEC50 for COC(=O)c1cccc(CN2CCc3c(c(C(F)(F)F)nn3-c3cccc(C(=O)N(C)c4ccc5c(c4)OCO5)c3)C2)c1 [Compound 020]
Output: > 6.00

Task: Quick one: give measured pEC50 for CN(C(=O)c1cccc(-n2nc(C(F)(F)F)c3c2CCN(C[C@H]2COC(C)(C)O2)C3)c1)c1ccc2c(c1)OCO2 [Compound 014]
Output: > 6.00

Task: Quick one: give measured pEC50 for CN(C(=O)c1cccc(-n2nc(C(F)(F)F)c3c2C(Oc2ccc(C(=O)O)cc2)COC3)c1)c1ccc2c(c1)OC(F)(F)O2 (single isomer, unassigned) [Compound 206]
Output: > 6.00

Task: Quick one: give measured pEC50 for CC(C)Oc1cc(N(C)C(=O)c2cccc(-n3nc(C(F)(F)F)c4c3C(Oc3ccc(C(=O)O)cc3)CCC4)c2)ccn1 (racemic) [Compound 317]
Output: 5.70 to 6.00

Task: Quick one: give measured pEC50 for CN1CCc2c(C(F)(F)F)nn(-c3cccc(C(=O)N(C)c4ccc5c(c4)OCO5)c3)c2C1 [Compound 029]
Output: > 6.00

Task: Quick one: give measured pEC50 for CN(C(=O)c1cccc(-n2nc(C(F)(F)F)c3c2CCNC3)c1)c1ccc2c(c1)OCO2 [Compound 002, hydrochloride]
Output: > 6.00

Task: Quick one: give measured pEC50 for CN(C(=O)c1cccc(-n2nc(C(F)(F)F)c3c2C(Oc2ccc(C(=O)O)cc2)CCC3)c1)c1cnc2c(c1)CCC2 (racemic) [Compound 258]
Output: > 6.00

Task: Quick one: give measured pEC50 for CN(C(=O)c1cccc(-n2nc(C(F)(F)F)c3c2C(Oc2ccc(C(=O)O)cc2)COC3)c1)c1ccc2c(c1)OCC2 (single isomer, unassigned) [Compound 282]
Output: > 6.00

Task: Quick one: give measured pEC50 for CN(C(=O)c1cccc(-n2nc(C(F)(F)F)c3c2C(Oc2ccc(C(=O)O)c(F)c2)CCC3)c1)c1ccc2c(c1)OC(F)(F)O2 (stereo not drawn) [Compound 147]
Output: > 6.00

Task: Quick one: give measured pEC50 for Cc1nn(-c2cccc(C(=O)N(C)c3ccc4c(c3)OC(F)(F)O4)c2)c2c1CCCC2 [Compound 103]
Output: < 5.70
